- Measurement Target: T1, human BCMA on BCMA expressing cell lines (human, UniProt Q02223 1-184)
- T1 sequence: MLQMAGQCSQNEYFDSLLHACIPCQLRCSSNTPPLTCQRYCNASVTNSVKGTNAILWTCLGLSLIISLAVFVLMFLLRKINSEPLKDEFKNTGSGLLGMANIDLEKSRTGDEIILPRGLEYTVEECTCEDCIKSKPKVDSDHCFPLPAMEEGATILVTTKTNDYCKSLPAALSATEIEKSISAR
- Assay Overview: cell-based or functional assay
Measurement Name: TDCC OPM-2 EC50 (pM)
Could you give me the number in pM? Just the number is fine.

Past entries and their recorded results:
Binder	Measurement Name	Experimental Result
02G02-M34G TriTAC (other, not shown: large carriers; small tags and cut ends, trispecific) VHH: EVQLVESGGGLVQPGRSLTLSCAASTNIFSITPGGWYRQAPGKQRELVAAIHGASTLYADSVKGRFTISRDNAKNSIYLQMNSLRPEDTALYYCNKVPWGDYHPGNVYWGQGTQVTVSS	TDCC OPM-2 EC50	7.1
02G02-M34Y TriTAC (other, not shown: large carriers; small tags and cut ends, trispecific) VHH: EVQLVESGGGLVQPGRSLTLSCAASTNIFSITPYGWYRQAPGKQRELVAAIHGASTLYADSVKGRFTISRDNAKNSIYLQMNSLRPEDTALYYCNKVPWGDYHPGNVYWGQGTQVTVSS	TDCC OPM-2 EC50	6.2
BCMA targeting trispecific protein 02F02 (other, trispecific; also called 02F02 TriTAC; not shown: The C-terminal 6xHis tag is left out because it follows these missing domains) VHH: EVQLVESGGGLVQPGRSLTLSCAASTNIFSKSPMGWYRQAPGKQRELVAAIHGSSTLYADSVKGRFTISRDNAKNSIYLQMNSLRPEDTALYYCNKVPWGDYHPGNVYWGQGTQVTVSS	TDCC OPM-2 EC50	10

Q: What does the data say about its TDCC OPM-2 EC50? Entry: BCMA targeting trispecific protein 02E06 (other, not shown: large carriers; small tags and cut ends, trispecific; also called 02E06 TriTAC) VHH: EVQLVESGGGLVQPGRSLTLSCAASTNIFSDSPMGWYRQAPGKQRELVAAIHGFSTFYADSVKGRFTISRDNAKNSIYLQMNSLRPEDTALYYCNKVPWGDYHPGNVYWGQGTQVTVSS
Ans: 7.4

Q: Entry to check: BCMA targeting trispecific protein 01F07 (other, not shown: large carriers; small tags and cut ends, trispecific; also called 01F07 TriTAC) VHH: EVQLVESGGGLVQPGRSLTLSCAASTNIFSTSPMGWYRQAPGKQRELVAAIHGFSTIYADSVKGRFTISRDNAKNSIYLQMNSLRPEDTALYYCNKVPWGDYHPGNVYWGQGTQVTVSS
Ans: 4.4

Q: Entry to check: BCMA targeting trispecific protein 02F04 (other, not shown: large carriers; small tags and cut ends, trispecific; also called 02F04 TriTAC) VHH: EVQLVESGGGLVQPGRSLTLSCAASTNIFSSSPMGWYRQAPGKQRELVAAIHGFSTLYADSVKGRFTISRDNAKNSIYLQMNSLRPEDTALYYCNKVPWGDYHPGNVYWGQGTQVTVSS
Ans: 7.3
